B1: glmS ribozyme (parent)
chain: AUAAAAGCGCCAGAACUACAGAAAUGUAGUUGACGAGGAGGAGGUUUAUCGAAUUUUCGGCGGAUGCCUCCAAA

- Variants of: B1
- assay_details: self-cleavage kobs at 640 uM GlcN6P; higher = faster cleavage; RNA array
- cond: with glucosamine-6-phosphate
Fewer inactive variants are shown than the library holds.
metric_name: self-cleavage kobs at 640 uM GlcN6P

Query string: Name the recorded self-cleavage kobs at 640 uM GlcN6P for AUAAAAGCGCCAGCACUACAGAAAUGUAGUUGACGGGGAGGAGGUUUAUCGAAUUUUCGGCGGAUGCCUCCAAA [A14C A36G] .
Result string: < 1e-05 s⁻¹

Query string: So what's the measured self-cleavage kobs at 640 uM GlcN6P for this one? AUAAAAGCGCCAGAGAUACAGAAAUGUAGUUGACGAGGAGGAGGUUUAUCGAAUUUUCGUCGGAUGCCUCCAAA [A15G C16A G60U]
Result string: < 1e-05 s⁻¹

Query string: Give its self-cleavage kobs at 640 uM GlcN6P value. Item: AUAAAAGCGCCGGAACUACAGAAAUGUAGUUGACGAGGAGGAGGUUUAUCGAAUUGUCGGCGGAUGCCUCCAAA [A12G U56G]
Result string: 8.35e-05 s⁻¹

Query string: What value of measured self-cleavage kobs at 640 uM GlcN6P is listed for AUAAAAGCGCCAGAACUACAGAAAUGUAGUUGACGAGGAGGAGGUUUAUCGAAUUUUCGGCGUAGGCCUCCAAA [G63U U65G] ?
Result string: < 1e-05 s⁻¹

Query string: Returns the measured self-cleavage kobs at 640 uM GlcN6P for the input variant. Input: AUAAAAGCGCCAGAACUACAGAAAUGUAGUUGACGAGGAGUAGGUUGAUCGAUUUUUCGGCGGAUGCCUCCAAA [G41U U47G A53U]
Result string: 9.96e-05 s⁻¹

Query string: Requested field: self-cleavage kobs at 640 uM GlcN6P. Item: AUAAAAGCGCCAGAACUACAGAAAUGUAGUUGACCAGGGGGAGGUUUAGUGAAUUUUCGGCGGAUGCCUCCAAA [G35C A39G U49G C50U]
Result string: < 1e-05 s⁻¹

Query string: What does the data say about its self-cleavage kobs at 640 uM GlcN6P? Entry: AUAAAAGCGCCAGAACUACAGAAAUGUAGCUGACGAGGAGGAGGUUUAUCGAAUUUUGGGCGGAUGCCUCCAAA [U30C C58G]
Result string: < 1e-05 s⁻¹

Query string: Which measured self-cleavage kobs at 640 uM GlcN6P value corresponds to AUAAAAGCGCCAGAACUACAGAAAUGUAGUUUACGAGGAGGAGGUUUAUCGAAUUUUCGGCGGGUGCCUCCAAA [G32U A64G] ?
Result string: 0.000178 s⁻¹

Query string: Fill in the blank: the reported self-cleavage kobs at 640 uM GlcN6P of AUAAAAGCGCCAGAGCUACAGAAAUGUAGUUGACGUGGAGGAGGGGUAUCGAAUUUUCGGCGGGUGCCUCCAAA [A15G A36U U45G U46G A64G] is ____.
Result string: < 1e-05 s⁻¹

Query string: // lookup self-cleavage kobs at 640 uM GlcN6P for AUAAAAGCGCCAGAACUACAGAAAUGUAGUUGACGAGGAAGAGGUUUAUCGAAUUUUCGGCGGAUACCUCCAAA [G40A G66A]
Result string: 0.00165 s⁻¹

Query string: Field request: self-cleavage kobs at 640 uM GlcN6P | item: AUAAAAGCGCCAGAACUACAGAAAUGUAGUUGACGCGGAGGAGGUUUAUCGAAUUUUCGGCGGCUGCCUCCAAA [A36C A64C]
Result string: < 1e-05 s⁻¹

Query string: Could you share which self-cleavage kobs at 640 uM GlcN6P value was measured for AUAAAAGCGCCAGAACUACAGAAAUGUAGUUGACGAGGAGGAGGUUUAUCGAAUUUGGGGCGGAUGCCUCCAAA [U57G C58G] ?
Result string: 7.15e-05 s⁻¹

Query string: # query: self-cleavage kobs at 640 uM GlcN6P of entry AUAAAAGCGCCAGAACUACAGAAAUGUAGUUGACGAGGAGGAGGUUUAUCGACUUUUCGGCGGAUGCCGCCAAA [A53C U69G]
Result string: 5.28e-05 s⁻¹

Query string: Quick one: self-cleavage kobs at 640 uM GlcN6P of AUAAAAGCGCCAGAACUACAGAAAUGUACUUGACGAGGAGGAGGUUUAUCGAAUUUUCGGCGGAUGCCUCAAAA [G29C C71A] ?
Result string: 0.000104 s⁻¹

Query string: For the variant AUAAAAGCGCCUGAACUACAGAAAUGUAGUUGACGAGGAGGAGGUUUAUCGUAUUUUCGACGGAUGCCUCCAAA [A12U A52U G60A] , what self-cleavage kobs at 640 uM GlcN6P is on record?
Result string: < 1e-05 s⁻¹

Query string: # self-cleavage kobs at 640 uM GlcN6P lookup, item AUAAAAGCGCCAGAACUACAGAAAUGUAUUUGAAGAGGAGGAGGUUUAUCGAAUUUUCGGUGGAUGCCUCCAAA [G29U C34A C61U]
Result string: < 1e-05 s⁻¹

Query string: Reported self-cleavage kobs at 640 uM GlcN6P for AUAAAAGCGCCAGAACUACAGAAAUGUAGUUGACGAGGGGGAGGUAUAUCGAAUUUUCGGCGGAUGCCUCCAAA [A39G U46A] : what is it?
Result string: 0.00116 s⁻¹

Query string: I would be grateful if you could share the reported self-cleavage kobs at 640 uM GlcN6P for AUAAAAGCGCCAGAAAUACAGAAAUGUAGUUGACGAGGAGGAGGUUUAUCGAAUUGUGGGCCGAUGCCUCCAAA [C16A U56G C58G G62C] .
Result string: < 1e-05 s⁻¹

Query string: Any idea what self-cleavage kobs at 640 uM GlcN6P was measured for AUAAAAGCGCCAGCACUACAGAAAUGUAGUUGACGAGGAGGAGGUUAAUCGAAUUUUGGGCGGAUGGCCCCAAA [A14C U47A C58G C67G U69C] ?
Result string: 9.78e-05 s⁻¹

Query string: Could you tell me which self-cleavage kobs at 640 uM GlcN6P is on file for AUAAAAGCGCCAGAACUACAGAAAUGUAGUUGACGAGGAGGAGGUUUAUCAAAUUUCCGGCGGAUGCCUCCAAA [G51A U57C] ?
Result string: < 1e-05 s⁻¹

Query string: I'd like to know its self-cleavage kobs at 640 uM GlcN6P. The variant in question is AUAAAAGCGCCAGAACUACAGAAAUGUAGUUGACGAGGAGGAGGUCUAUCGAAUUUUCGUCGGAUGCCUCCAAA [U46C G60U]
Result string: < 1e-05 s⁻¹

Query string: Report self-cleavage kobs at 640 uM GlcN6P for AUAAAAGCGCCAGAACUACAGAAAUGUAGUUGACGAGGAGGAGGUUCAUGGAAUUUUCGGCGGAUGCCUCCAAA [U47C C50G] please.
Result string: < 1e-05 s⁻¹

Query string: Param item = AUAAAAGCGCCAGAACUACAGAAAUGUAGUUAACGAGGAGGAGGUUUAUCGAAUUUUCGGCGGAUGCCUCGAAA [G32A C71G] ; retrieve measured self-cleavage kobs at 640 uM GlcN6P.
Result string: 6.85e-05 s⁻¹

Query string: For the variant AUAAAAGCGCCAGAACUACAGAAAUGUAGUUGACGAGGAGGAGCUUUAUCGAAUUUUCGGCGGAUGCCUCCAAA [G44C] , what self-cleavage kobs at 640 uM GlcN6P is on record?
Result string: 4.33e-05 s⁻¹

Query string: What value of self-cleavage kobs at 640 uM GlcN6P has been reported for the following variant? AUAAAACCGCCAGAAGUACAGAAAUGUAGUUGACGAGGAGGAGGUUUAUCGAAUUUUCGGCGGAUGCCUCCAAA [G7C C16G]
Result string: < 1e-05 s⁻¹

Query string: Entry AUAAAAGCGCUAGAACUACAGAAAUGUAGUUGACGAGGAGGAGGUUCAUCGAAUUUUCGGCGGAUGCCUCCAAA [C11U U47C] has what self-cleavage kobs at 640 uM GlcN6P?
Result string: 4.05e-05 s⁻¹

Query string: Fill in: self-cleavage kobs at 640 uM GlcN6P of AUAAAAGCGCCAGAACUACAGAAAUGUAGUUGACUAGGAGGAGGUUUAUCGAAUUUUCGGCGGAUGACUCCAAA [G35U C67A] is ___
Result string: < 1e-05 s⁻¹

Query string: Fill in: self-cleavage kobs at 640 uM GlcN6P of AUAAAAGCGCCAGAGCUACAGAAAUGUAUUUGACGAGGAGGAGGUUUAUCGAAUGUUCGGCGGGUGCCUCCAAA [A15G G29U U55G A64G] is ___
Result string: 0.000144 s⁻¹

Query string: Quick one: self-cleavage kobs at 640 uM GlcN6P for AUAAAAGCGCCAGAACUACAGAAAUGUAGUUGACGAGGAGGAUGUUUAUCGAAUUUUCGGCGGAUGCAUCCAAA [G43U C68A] ?
Result string: 0.0194 s⁻¹

Query string: self-cleavage kobs at 640 uM GlcN6P lookup needed for AUAAAAGCGCCCGAACUACAGAAAUGUAGUUGACGAGGAGGAGGUUCAUCGAAUUUUCGUCGGAUGCCUCCAAA [A12C U47C G60U] , thanks.
Result string: < 1e-05 s⁻¹

Query string: For the variant shown here, AUAAAAGCGCCAGAACUACAGAAAUGUAGUUGAGGAGGAGGAGUUUUAUUGAAUUUUCGGCGGAUGCCUCUAAA [C34G G44U C50U C71U] , give the reported self-cleavage kobs at 640 uM GlcN6P.
Result string: < 1e-05 s⁻¹

Query string: For the variant shown here, AUAAAAGCGCCAGAACUACAGAAAUGUAGUUGACGAGGAGGAGGUUUAUCGUAUUUUCGACGGAUGCCUCCAAA [A52U G60A] , give the reported self-cleavage kobs at 640 uM GlcN6P.
Result string: < 1e-05 s⁻¹

Query string: What measured self-cleavage kobs at 640 uM GlcN6P goes with AUAAAAGCGCCAGAACUACAGAAAUGUAGUUGACGAGGAGGAGGUUUACCGAAUUUUCGGCUGAUGCCUCCAAA [U49C G62U] ?
Result string: < 1e-05 s⁻¹

Query string: Given AUAAAAGCGCCAGAACUACAGAAAUGUAGUUGACGAGGAGGAGCUGUAUCGAAUUUUCGGCGGAUGCCUCCAAA [G44C U46G] , state its recorded self-cleavage kobs at 640 uM GlcN6P.
Result string: < 1e-05 s⁻¹

Query string: Entry AUAAAAGCCCCAGAACUACAGAAAUGUAGUUGACGAGGAGGAGGUUUAUCUAAUUUUCGGCGGAUGCCUCCAAA [G9C G51U] : reported self-cleavage kobs at 640 uM GlcN6P = ?
Result string: < 1e-05 s⁻¹

Query string: For AUAAAAGCGCCAGAACUACAGAAAUGUAAUUGAAGAGGAGGAGGUUUAUCGAAUUUUCGGCGGAUGCCUCCAAA [G29A C34A] , what is its reported self-cleavage kobs at 640 uM GlcN6P?
Result string: < 1e-05 s⁻¹

Query string: So what does the record say about self-cleavage kobs at 640 uM GlcN6P for AUAAAAGCGCCAGCACUACAGAAAUGUAGUUCACUAGGAGGAGGUUUAUCGAAUUUACGGCGGAUGCCUCCAAA [A14C G32C G35U U57A] ?
Result string: < 1e-05 s⁻¹

Query string: Dear colleague, I am looking for the recorded self-cleavage kobs at 640 uM GlcN6P of the following variant: AUAAAAGCGCCAGAUCUACAGAAAUGUAGUUGACGAGGAGGAGGUUUAUAGAAUUUUCGGCGGAUGCUUCCAAA [A15U C50A C68U]
Result string: 7.76e-05 s⁻¹

Query string: Any idea what its self-cleavage kobs at 640 uM GlcN6P is? The variant is AUAAAAGCGCCAGAACUACAGAAAUGUAGUUGACGAGGAGGGACUUUAUCGAAUUUUCGGCGGAUGCCUCCAAA [A42G G43A G44C]
Result string: < 1e-05 s⁻¹

Query string: Any idea what self-cleavage kobs at 640 uM GlcN6P was measured for AUAAAAGCGCCAGAACUACAGAAAUGUAGUUGACGAGGAGGGGGUUUAUCGAAUCUUCGGCGGAUGCCUCCAAA [A42G U55C] ?
Result string: 0.0147 s⁻¹

Query string: Which self-cleavage kobs at 640 uM GlcN6P value is on record for AUAAAAGCGCCAGAACUACAGAAAUGUAGCUGACGAGUAGGUGGUUUAUCGAAUUUUCGGCGGAUGCCUCCAAA [U30C G38U A42U] ?
Result string: < 1e-05 s⁻¹

Query string: Endpoint output: self-cleavage kobs at 640 uM GlcN6P of AUAAAAGCGCCAGAACUACAGAAAUGUAGUUGACGAGAAGGAGGUUUAUCGAAUUUUCGGCUGAUCCCUCCAAA [G38A G62U G66C] . Value?
Result string: < 1e-05 s⁻¹

Query string: Can you look up the measured self-cleavage kobs at 640 uM GlcN6P of AUAAACGCGCCAGAACUACAGAAAUGUAGUUGACGAGGAGGAGGUUUAUCGAUUUUUUGGCGGAUGCCUCCAAA [A6C A53U C58U] for me?
Result string: < 1e-05 s⁻¹

Query string: Consider the variant shown here: AUAAAAGCGCCGGAAUUACAGAAAUGUAGUUGACGAGGAGGAGGUUUAUCGAAUUUUCGGCGGAUGCCUCCAAA [A12G C16U] What is its recorded self-cleavage kobs at 640 uM GlcN6P?
Result string: 0.000179 s⁻¹

Query string: What value of self-cleavage kobs at 640 uM GlcN6P has been recorded for this entry: AUAAAAGCGCCAGUACUACAGAAAUGUAGUUGACGAGGAGGAGGUUUAUCGGAUUUUCGGCGGAUGCCUCCAAA [A14U A52G]
Result string: 7.16e-05 s⁻¹

Query string: Using the record for AUAAAAGCCCCAGAACUACAGAAAUGUAGUUGACGAGGAGGAGGUUUAUCGAUUUUUCGGCGGAUGCCUCCAAA [G9C A53U] , report its self-cleavage kobs at 640 uM GlcN6P.
Result string: < 1e-05 s⁻¹
